# system: T1, human sclerostin, mature form (signal peptide removed) (human, UniProt Q9BQB4 24-213)
# T1 construct: 190 amino acid glycoprotein with four disulfide bonds (C1-C5, C2-C6, C3-C7, C4-C8); also called SOST; recombinant human sclerostin
# T1 sequence: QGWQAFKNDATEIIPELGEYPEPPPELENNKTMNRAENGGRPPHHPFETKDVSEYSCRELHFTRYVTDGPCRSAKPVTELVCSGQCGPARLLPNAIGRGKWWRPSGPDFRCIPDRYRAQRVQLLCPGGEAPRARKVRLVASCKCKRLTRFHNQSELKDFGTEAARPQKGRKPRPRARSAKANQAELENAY
# method_notes: KinExA solution equilibrium binding, human sclerostin-coated beads
measure: Kd

| binder | Kd |
| --- | --- |
| Antibody 19 (antibody, V domains shown, the signal peptide is not part of the antibody as tested; Parent of humanized Ab-20 and Ab-23; also called Ab-19) VH: EVQLQQSGPELVKPGASVKMSCKASGFTFTDYIMHWVKQKPGQGLEWIGYINPYNDDTEYNEKFKGKATLTSDKSSSTAYMDLSSLTSEGSAVYYCARSIYYYDAPFAYWGQGTLVTVSS VL: DIQMTQTTSSLSASLGDRVNISCRASQDISSYLNWYQQKPDGTVKLLIYSTSRLNSGVPSRFSGSGSGTDYSLTISNLAQEDIATYFCQQDIKHPTFGGGTKLELKR | 3 pM |

Task: Kd lookup needed for Antibody 4 (antibody, mouse IgG1, kappa, V domains shown, Mature LC and HC; Parent of humanized Ab-5; also called Ab-4) VH: EVQLQQSGPELMKPGASVKMSCKASGYTFTDYNMHWVKQNQGKTLEWIGEINPNSGGAGYNQKFKGKATLTVDKSSTTAYMELRSLTSEDSAVYYCARLGYDDIYDDWYFDVWGAGTTVTVSS VL: DIQMTQITSSLSASLGDRVSISCRASQDISNYLNWYQQKPDGTFKLLIFYTSRLLSGVPSRFSGSGSGTDYSLTIYNLEQEDFATYFCQQGDTLPYTFGGGTKLEIKR , thanks.
Output: 3 pM
